test: Half life in a medium of rat intestinal homogenate.; format: ADME
Experimental Readout: half-life (min)
Give the value, in units of min, as a plain number.

input: Consider the compound `CCn1cc(C(=O)O)c(=O)c2cc(F)c(N3CCN(C(=O)OCOC(C)=O)CC3)cc21` . State its measured half-life.
output: 2.6

====

Below: a set of entries, each annotated with reported half-life.
experiment: Half life in a medium of dog serum.; format: ADME, organism-based, Canis lupus familiaris
Give the value, in units of min, as a plain number.

# Compound, half-life / min
data = [
    ("CCn1cc(C(=O)O)c(=O)c2cc(F)c(N3CCN(C(=O)OCOC(C)=O)CC3)cc21", 6),
]

Moving on to the next compound.
input: Consider the compound CCn1cc(C(=O)O)c(=O)c2cc(F)c(N3CCN(C(=O)OC(C)OC(C)=O)CC3)cc21 (configuration not stated) . State its measured half-life.
output: 6

====

assay: Serum conc at 3 hours following 25 mg/kg dose; type: ADME, organism-based, Macaca mulatta; set-up: dose 25 mg/kg; conditions: rhesus monkey, read-out: Concentration_plasma
Experimental Readout: concentration at 3 h (ng/mL)
Give the value, in units of ng/mL, as a plain number.

input: Consider the compound `CCn1cc(C(=O)O)c(=O)c2cc(F)c(N3CCNCC3)cc21` . State its measured concentration at 3 h.
output: 760
